This collection of values is drawn from patent US11319324B2.

- tgt: UniProt:P56373
- assay.summary: Intracellular calcium measurement to assess antagonist activity at human P2X3 receptors (hP2X3 CHO), photina luminescence
- Assay type: cell-based
- Design: expressed in transfected cells; host or cells: Chinese hamster ovary (CHO) cells
- experimental.conditions: column 2), CHO cells, agonist α,β-methylene-ATP at EC50
Entries whose IC50 is below 90 nM take Satisfied; entries at or above 90 nM take Not satisfied.

>>> group("CCc1cc2n(CC(=O)Nc3ccc(F)cn3)c3c(c(=O)n2n1)CN(Cc1cccnc1)C3=O")
"Satisfied"
>>> group("CC(C)N1Cc2c(n(CC(=O)Nc3ccc(F)cn3)c3cc(C4CNC4)nn3c2=O)C1=O.Cl")
"Not satisfied"
>>> group("CCc1cc2n(CC(=O)Nc3ccc(F)cn3)c3c(c(=O)n2n1)CN(C[C@@H]1CN(C(=O)OC(C)(C)C)CCO1)C3=O")
"Not satisfied"
>>> group("CC(C)N1Cc2c(n(CC(=O)Nc3ccc(F)cn3)c3cc(C(=O)Nc4ncccn4)nn3c2=O)C1=O")
"Satisfied"
>>> group("COC[C@H](C)N1Cc2c(n(CC(=O)Nc3ccc(F)cn3)c3cc(-c4ccc(C)nc4)nn3c2=O)C1=O")
"Satisfied"
>>> group("CCc1cc2n(CC(=O)Nc3ccc(F)cn3)c3c(c(=O)n2n1)CN(C1CCCOC1)C3=O (stereo not shown)")
"Not satisfied"
>>> group("CC(C)N1Cc2c(n(CC(=O)Nc3ccc(F)cn3)c3cc(NC(=O)C4CCOCC4)nn3c2=O)C1=O")
"Satisfied"

----------
- tgt: human P2X3 receptor (Homo sapiens)
- Sequence (P56373 1-397): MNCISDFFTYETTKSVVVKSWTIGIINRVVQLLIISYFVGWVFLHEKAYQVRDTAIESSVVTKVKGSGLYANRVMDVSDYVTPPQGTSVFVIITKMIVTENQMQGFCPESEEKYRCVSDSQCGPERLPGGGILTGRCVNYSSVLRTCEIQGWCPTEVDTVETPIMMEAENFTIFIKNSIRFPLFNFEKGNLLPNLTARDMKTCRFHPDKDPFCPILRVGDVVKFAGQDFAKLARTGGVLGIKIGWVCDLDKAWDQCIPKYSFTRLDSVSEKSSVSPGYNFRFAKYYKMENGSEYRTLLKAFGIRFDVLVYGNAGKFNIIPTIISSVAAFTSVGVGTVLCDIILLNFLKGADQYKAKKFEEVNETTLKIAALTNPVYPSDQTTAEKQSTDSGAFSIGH
- assay.summary: Intracellular calcium measurement, antagonist activity at human P2X3 receptors (hP2X3 1321N1), Fluo8
- Type: cell-based
- Parameters: expressed in transfected cells; host or cells: human astrocytoma 1321N1 (1312N1 [sic])
- experimental.conditions: column 3); 1321N1 cells, human P2X3, Fluo8, agonist ATP at EC50
reported.metric: IC50 (nM)

>>> readout_number("CCc1cc2n(CC(=O)Nc3ccc(F)cn3)c3c(c(=O)n2n1)CN(C1CCN(C(=O)OC(C)(C)C)C1)C3=O (stereo not shown)")
62
>>> readout_number("CC(C)N1Cc2c(n(CC(=O)Nc3ccc(F)cn3)c3cc(Br)nn3c2=O)C1=O")
89
>>> readout_number("CC(C)N1Cc2c(n(CC(=O)Nc3ccc(F)cn3)c3cc(NC(=O)CO)nn3c2=O)C1=O")
587
>>> readout_number("CC(C)N1Cc2c(n(CC(=O)Nc3ccc(Cl)cn3)c3cc(C(F)(F)F)nn3c2=O)C1=O")
36
>>> readout_number("CCc1cc2n(CC(=O)Nc3ccc(F)cn3)c3c(c(=O)n2n1)CN(Cc1cccnc1)C3=O")
17
>>> readout_number("CCc1cc2n(CC(=O)Nc3ccc(F)cn3)c3c(c(=O)n2n1)CN(CCN1CCOCC1)C3=O")
273
>>> readout_number("CNC(=O)c1cc2n(CC(=O)Nc3ccc(F)cn3)c3c(c(=O)n2n1)CN([C@@H](C)COC)C3=O")
125

----------
- tgt: human P2X2/3 receptors (Homo sapiens, UniProt P56373+Q9UBL9)
- Construct: expressed in transfected cells; host or cells: human astrocytoma 1321N1 (1312N1 [sic])
- assay.summary: Intracellular calcium measurement, antagonist activity at human P2X2/3 receptors (hP2X23 1321N1), Fluo8
- Assay type: cell-based
- experimental.conditions: column 4); 1321N1 cells, human P2X2/3, Fluo8, agonist ATP at EC50; read-out: 4) hP2X2/3 IC50 [nM] (1321N1)
reported.metric: IC50 (nM)

>>> readout_number("CC(=O)N1CCC(c2cc3n(CC(=O)Nc4ccc(F)cn4)c4c(c(=O)n3n2)CN(C(C)C)C4=O)CC1 [Example 263]")
4700
>>> readout_number("CC(C)N1Cc2c(n(CC(=O)Nc3ccc(F)cn3)c3cc(C(=O)N4CCCCC4)nn3c2=O)C1=O [Example 183]")
2300
>>> readout_number("Cc1ccc(NC(=O)Cn2c3c(c(=O)n4nc(C(C)(C)C)cc24)CN(C(C)C)C3=O)nc1 [Example 4]")
9600
>>> readout_number("Cc1ccc(-c2cc3n(CC(=O)Nc4ccc(F)cn4)c4c(c(=O)n3n2)CN(C(C)C)C4=O)cn1 [Example 154]")
765
>>> readout_number("CC(C)(C)c1cc2n(CC(=O)Nc3ccc(F)cn3)c3c(c(=O)n2n1)CN(C1CCCC1)C3=O [Example 26]")
2450
>>> readout_number("CC(C)N1Cc2c(n(CC(=O)Nc3ccc(F)cn3)c3cc(C(=O)NC4CCCC4)nn3c2=O)C1=O [Example 185]")
3350
>>> readout_number("COC[C@H](C)N1Cc2c(n(CC(=O)Nc3ccc(F)cn3)c3cc(C(C)(C)C)nn3c2=O)C1=O [Example 35]")
5650
>>> readout_number("CC(C)c1cc2n(CC(=O)Nc3ccc(Cl)cn3)c3c(c(=O)n2n1)CN(C(C)C)C3=O [Example 8]")
3650

----------
- tgt: human P2X3 receptor (Homo sapiens, UniProt P56373)
- Sequence (P56373 1-397): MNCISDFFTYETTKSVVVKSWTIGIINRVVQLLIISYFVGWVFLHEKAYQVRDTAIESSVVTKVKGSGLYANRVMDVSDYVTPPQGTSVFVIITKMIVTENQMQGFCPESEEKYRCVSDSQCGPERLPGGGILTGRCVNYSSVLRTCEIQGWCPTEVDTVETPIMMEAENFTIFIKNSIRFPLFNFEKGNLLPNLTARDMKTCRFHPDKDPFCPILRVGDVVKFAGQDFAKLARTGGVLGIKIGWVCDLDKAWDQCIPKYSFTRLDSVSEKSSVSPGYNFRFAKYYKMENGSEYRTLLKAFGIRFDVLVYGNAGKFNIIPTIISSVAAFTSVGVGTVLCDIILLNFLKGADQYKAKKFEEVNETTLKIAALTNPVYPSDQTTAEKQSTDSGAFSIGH
- assay.summary: Intracellular calcium measurement, antagonist activity at human P2X3 receptors (hP2X3 1321N1), Fluo8
- Type: cell-based
- Parameters: expressed in transfected cells; host or cells: human astrocytoma 1321N1 (1312N1 [sic])
- experimental.conditions: column 3); 1321N1 cells, human P2X3, Fluo8, agonist ATP at EC50
reported.metric: IC50 (nM)

>>> readout_number("CC(C)N1Cc2c(n(CC(=O)Nc3ccc(F)cn3)c3cc(C(=O)NCC4CC4)nn3c2=O)C1=O")
21
>>> readout_number("CC(C)N1Cc2c(n(CC(=O)Nc3ccc(F)cn3)c3cc(C(C)(C)O)nn3c2=O)C1=O")
56
>>> readout_number("CCc1cc2n(CC(=O)Nc3ccc(Cl)cn3)c3c(c(=O)n2n1)CN(C(C)C)C3=O")
56
>>> readout_number("CCc1cc2n(CC(=O)Nc3ccc(F)cn3)c3c(c(=O)n2n1)CN(CCCOC)C3=O")
280
>>> readout_number("CC(C)[C@H](C)N1Cc2c(n(CC(=O)Nc3ccc(Cl)cn3)c3cc(C(C)(C)C)nn3c2=O)C1=O")
225
>>> readout_number("CC(C)c1cc2n(CC(=O)Nc3ccc(F)cn3)c3c(c(=O)n2n1)CN(CC(C)(C)O)C3=O")
253
>>> readout_number("CC(C)(O)CN1Cc2c(n(CC(=O)Nc3ccc(F)cn3)c3cc(C(C)(C)C)nn3c2=O)C1=O")
170
>>> readout_number("CC[C@H](C)N1Cc2c(n(CC(=O)Nc3ccc(Cl)cn3)c3cc(C(F)(F)F)nn3c2=O)C1=O")
82

----------
- tgt: human P2X2/3 receptors (Homo sapiens, UniProt P56373+Q9UBL9)
- Construct: expressed in transfected cells; host or cells: human astrocytoma 1321N1 (1312N1 [sic])
- Sequence (P56373 1-397): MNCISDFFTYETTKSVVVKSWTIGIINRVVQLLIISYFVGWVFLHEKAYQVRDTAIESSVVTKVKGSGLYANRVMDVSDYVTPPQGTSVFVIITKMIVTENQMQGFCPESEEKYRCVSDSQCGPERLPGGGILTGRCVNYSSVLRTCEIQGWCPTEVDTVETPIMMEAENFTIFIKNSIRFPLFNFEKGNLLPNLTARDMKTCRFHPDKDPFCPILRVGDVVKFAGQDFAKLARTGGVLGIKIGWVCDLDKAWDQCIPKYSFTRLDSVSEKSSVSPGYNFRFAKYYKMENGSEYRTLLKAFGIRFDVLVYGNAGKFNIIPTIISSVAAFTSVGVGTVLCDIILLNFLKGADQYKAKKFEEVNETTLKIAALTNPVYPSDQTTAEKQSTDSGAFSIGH
- Sequence (Q9UBL9 1-471): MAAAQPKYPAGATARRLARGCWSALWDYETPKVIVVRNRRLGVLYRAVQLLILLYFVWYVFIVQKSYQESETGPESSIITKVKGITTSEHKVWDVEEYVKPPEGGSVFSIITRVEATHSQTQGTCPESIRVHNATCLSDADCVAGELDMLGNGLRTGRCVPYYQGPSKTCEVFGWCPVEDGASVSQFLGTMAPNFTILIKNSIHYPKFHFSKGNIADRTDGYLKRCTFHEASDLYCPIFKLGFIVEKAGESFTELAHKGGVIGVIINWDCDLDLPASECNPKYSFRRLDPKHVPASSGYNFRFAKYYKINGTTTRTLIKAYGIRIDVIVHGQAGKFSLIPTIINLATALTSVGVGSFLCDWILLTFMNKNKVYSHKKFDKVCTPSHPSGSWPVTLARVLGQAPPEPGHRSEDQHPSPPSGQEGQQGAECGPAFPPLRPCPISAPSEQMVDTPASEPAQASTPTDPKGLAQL
- assay.summary: Intracellular calcium measurement, antagonist activity at human P2X2/3 receptors (hP2X23 1321N1), Fluo8
- Format: cell-based
- experimental.conditions: column 4); 1321N1 cells, human P2X2/3, Fluo8, agonist ATP at EC50; read-out: 4) hP2X2/3 IC50 [nM] (1321N1)
- Procedure: 3) And 4) Intracellular Calcium Measurement to Compare Antagonist Activity at Human P2X3 Receptors (hP2X3 1321N1) and at Human P2X2/3 Receptors (hP2X23 1321N1) The comparison of antagonistic activity at the P2X3 versus the P2X2/3 receptor of the compounds of the invention were performed by use of recombinant cell lines. […] The cytoplasmatic calcium transient is detected via the calcium sensitive dye Fluo8. The strength of Fluo8 fluorescence signal corresponds to the level of receptor activation. […]
Reported IC50 is given for each of the following compounds.
reported.metric: IC50

>>> result("CC(C)N1Cc2c(n(CC(=O)Nc3ccc(F)cn3)c3cc(NCCO)nn3c2=O)C1=O [Example 276]")
"> 20200 nM"
>>> result("CCc1cc2n(CC(=O)Nc3ccccn3)c3c(c(=O)n2n1)CN(C(C)C)C3=O [Example 64]")
"> 32000 nM"
>>> result("CCc1cc2n(CC(=O)Nc3ccc(F)cn3)c3c(c(=O)n2n1)CN(C(C)C)C3=O [Example 24]")
"10000 nM"
>>> result("CCc1cc2n(CC(=O)Nc3ccc(F)cn3)c3c(c(=O)n2n1)CN(C1CCN(C(=O)C(F)F)C1)C3=O (stereo not shown) [Example 266]")
"> 32000 nM"
